Each record here notes measured composite z-score.
# tgt: Streptavidin (Streptomyces avidinii)
# protocol text: streptavidin binders on small-molecule microarray, primary screen, artefact control for SMM compound annotation, biophysical, 635/667 nm fluorescence (AID 1147);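 note: signal reflects streptavidin binding to arrayed compounds as a control protein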
# stated conditions: streptavidin binding, higher = more signal
observable: composite z-score

- molecule: "COCCOC(=O)N1C(=O)[C@@]2(c3cc(C#CCC(C(=O)OC)C(=O)OC)ccc31)[C@H](c1ccc(O)cc1)N1[C@H](c3ccccc3)[C@H](c3ccccc3)OC(=O)[C@H]1[C@@H]2C(=O)NC[C@H](O)c1ccccc1"
  tgt: "Streptavidin (Streptomyces avidinii)"
  result: 1.7
- molecule: "COc1cc(NN2C(C(O)C3CCCCC3)C=CC3C(=O)N(C)C(=O)C32)cc(OC)c1OC (configuration not stated)"
  tgt: "Streptavidin (Streptomyces avidinii)"
  result: 2.2
- molecule: "CCCCC(=O)N(CCN1CCOCC1)[C@@H]1CC(C(=O)NCCO)=C[C@H](Oc2c(I)cc(CO)cc2OC)[C@H]1O"
  tgt: "Streptavidin (Streptomyces avidinii)"
  result: -0.0538
- molecule: "COc1ccc(C(O)C2C=CC3C(=O)N(c4ccccc4)C(=O)C3N2Nc2ccccc2)cc1 (configuration not stated)"
  tgt: "Streptavidin (Streptomyces avidinii)"
  result: 0.571
- molecule: "CCOC(=O)C[C@H]1[C@H](OC(=O)c2ccc(-c3ccccc3)cc2)[C@@H](NC(=O)Cc2ccc(OC)cc2)c2cc(OCCCO)ccc2N1C(=O)Cc1ccc(OC)cc1"
  tgt: "Streptavidin (Streptomyces avidinii)"
  result: -0.0417
- molecule: "[N-]=[N+]=NC[C@H](Cc1ccccc1)NC(=O)c1ccccc1"
  tgt: "Streptavidin (Streptomyces avidinii)"
  result: 0.148
- molecule: "CN(C)C(=O)[C@@]1(Cc2ccccc2)COC(c2ccc(OCCCO)cc2)=N1"
  tgt: "Streptavidin (Streptomyces avidinii)"
  result: 0.142

====

The following compounds are listed with their measured composite z-score values.
# Tested on: Inhibin beta A chain (activin A)
# protocol text: INHBA (activin A) binders on microarrays, primary screen, biochemical, small-molecule microarray, 635 nm fluorescence scan (AID 1107);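 note: mouse activin A protein probed at 4.33 µg/mL on printed slides; score merges bound-protein fluorescence near 667 nm with spot signal-to-noise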
# stated conditions: small-molecule microarray binding, higher = more signal

- compound: "C=C(C(=O)CC[C@@H](OC(=O)c1ccccc1-c1ccccc1C(=O)O)c1ccccc1OCCO)C(C)C"
  composite z-score: 1.26
- compound: "CCOC(=O)C1=C[C@@H](C(C)(C)C)N(S(=O)(=O)c2ccc(C)cc2)[C@H]1c1cccc(Cl)c1"
  composite z-score: -0.213
- compound: "C=CCNC(=O)[C@@H]1[C@H]2C(=O)O[C@H](c3ccccc3)[C@H](c3ccccc3)N2[C@H](c2ccc(O)cc2)[C@@]12C(=O)Nc1ccc(C#CCC(C(=O)OC)C(=O)OC)cc12"
  composite z-score: 0.595
- compound: "COC(=O)[C@@]1(Cc2ccc(OC)cc2)[C@H]2c3cc(C(=O)N4CCCC4)n(Cc4cc(C)n(C)n4)c3C[C@H]2CN1C(=O)c1ccccc1"
  composite z-score: 0.104
- compound: "O=C1C2C=CC(C(O)C=Cc3ccc([N+](=O)[O-])cc3)N(Nc3ccccc3)C2C(=O)N1c1ccccc1 (stereo not given)"
  composite z-score: 1.06
- compound: "C=C(COC)C(=O)CC[C@H](OC(=O)c1cccnc1)c1ccc(CO)o1"
  composite z-score: 0.488
- compound: "COCCOC(=O)N1C(=O)[C@@]2(c3cc(C#CCCO)ccc31)[C@H](c1ccccc1OCCO)N1[C@H](c3ccccc3)[C@H](c3ccccc3)OC(=O)[C@H]1[C@@H]2C(=O)N1CCCCCCC1"
  composite z-score: 1.6
- compound: "C=CCNC(=O)[C@H]1[C@@H]2C(=O)O[C@@H](c3ccccc3)[C@@H](c3ccccc3)N2[C@@H](c2ccc(O)cc2)[C@]12C(=O)N(C(=O)OCCOC)c1ccc(C#CCC(C(=O)OC)C(=O)OC)cc12"
  composite z-score: 0.23
- compound: "Cc1ccccc1C(O)C1C=CC2C(=O)NC(=O)C2N1Nc1ccc(Cl)cc1Cl (stereo not given)"
  composite z-score: 1.18
- compound: "COCCOC(=O)N1C(=O)[C@@]2(c3ccccc31)[C@H](c1ccccc1OCCO)N1[C@H](c3ccccc3)[C@H](c3ccccc3)OC(=O)[C@H]1[C@@H]2C(=O)N1CCCCCCC1"
  composite z-score: 2.02
- compound: "CC(C)C[C@@H]1NC(=O)[C@@H]2C[C@H](C(=O)NCCCCCC[N+](C)(C)C)[C@H](c3cccc(OCCO)c3)N2C1=O"
  composite z-score: 0.327
- compound: "O=c1cccc(-c2ccc(F)cc2)o1"
  composite z-score: 0.457
- compound: "CC(C)OC(=O)CC(=O)CC(O)c1ccc([N+](=O)[O-])cc1 (stereo not given)"
  composite z-score: 0.527
- compound: "CCCNC(=O)[C@@]1(Sc2ccc(C)cc2)CC(=O)N(C2CCCCC2)[C@@H]1c1ccc(CO)cc1I"
  composite z-score: -0.277
- compound: "Cc1cccc([C@H]2C[C@H]3C(I)=C[C@@H]2C(=O)[C@]32CO2)c1"
  composite z-score: 1.03
